B1: glmS ribozyme (parent)
chain: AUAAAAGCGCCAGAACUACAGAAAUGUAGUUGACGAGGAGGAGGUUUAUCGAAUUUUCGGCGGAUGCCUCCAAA

# Variants of: B1
# measurement-description: self-cleavage kobs at 2500 uM GlcN6P; higher = faster cleavage; RNA array
# particulars: with glucosamine-6-phosphate
Variants at the floor of the assay were thinned out.
self-cleavage kobs at 2500 uM GlcN6P values by entry

- sequence-change: "C10G U56C"
  value-comparator: "<"
  self-cleavage kobs at 2500 uM GlcN6P [s⁻¹]: "1e-05"
- sequence-change: "A12C C71G"
  value-comparator: "="
  self-cleavage kobs at 2500 uM GlcN6P [s⁻¹]: 0.000424
- sequence-change: "U30C U69C"
  value-comparator: "="
  self-cleavage kobs at 2500 uM GlcN6P [s⁻¹]: 0.000129
- sequence-change: "C11A C50G U57G"
  value-comparator: "="
  self-cleavage kobs at 2500 uM GlcN6P [s⁻¹]: "7.4e-05"
- sequence-change: "U69G"
  value-comparator: "="
  self-cleavage kobs at 2500 uM GlcN6P [s⁻¹]: 0.00011
- sequence-change: "A14G A33C U46G C58U G59U"
  value-comparator: "<"
  self-cleavage kobs at 2500 uM GlcN6P [s⁻¹]: "1e-05"
- sequence-change: "C50U G63U C68G"
  value-comparator: "="
  self-cleavage kobs at 2500 uM GlcN6P [s⁻¹]: "7.59e-05"
- sequence-change: "U30G A33C G66U"
  value-comparator: "<"
  self-cleavage kobs at 2500 uM GlcN6P [s⁻¹]: "1e-05"
- sequence-change: "A6C C8G A48G G60U C68U"
  value-comparator: "<"
  self-cleavage kobs at 2500 uM GlcN6P [s⁻¹]: "1e-05"
- sequence-change: "C8U C16A G35C A36U C71G"
  value-comparator: "<"
  self-cleavage kobs at 2500 uM GlcN6P [s⁻¹]: "1e-05"
- sequence-change: "C16G G29U A39U G51U C71U"
  value-comparator: "<"
  self-cleavage kobs at 2500 uM GlcN6P [s⁻¹]: "1e-05"
- sequence-change: "C10U A15U G35A C61G"
  value-comparator: "<"
  self-cleavage kobs at 2500 uM GlcN6P [s⁻¹]: "1e-05"
- sequence-change: "G13A U47A"
  value-comparator: "="
  self-cleavage kobs at 2500 uM GlcN6P [s⁻¹]: 0.000178
- sequence-change: "A15C A53G"
  value-comparator: "="
  self-cleavage kobs at 2500 uM GlcN6P [s⁻¹]: 0.00454
- sequence-change: "A12C U56A C67A U69G"
  value-comparator: "="
  self-cleavage kobs at 2500 uM GlcN6P [s⁻¹]: 0.000144
- sequence-change: "U47A C68G"
  value-comparator: "="
  self-cleavage kobs at 2500 uM GlcN6P [s⁻¹]: "6.81e-05"
- sequence-change: "C58U C70U"
  value-comparator: "="
  self-cleavage kobs at 2500 uM GlcN6P [s⁻¹]: "4.75e-05"
- sequence-change: "A12G U46G C71A"
  value-comparator: "="
  self-cleavage kobs at 2500 uM GlcN6P [s⁻¹]: "5e-05"
- sequence-change: "G66C C70U"
  value-comparator: "="
  self-cleavage kobs at 2500 uM GlcN6P [s⁻¹]: 0.00109
- sequence-change: "G32U C58A C67A"
  value-comparator: "="
  self-cleavage kobs at 2500 uM GlcN6P [s⁻¹]: 0.000241
- sequence-change: "A6C A14G C50U"
  value-comparator: "<"
  self-cleavage kobs at 2500 uM GlcN6P [s⁻¹]: "1e-05"
- sequence-change: "A14U C50A A53G C70A"
  value-comparator: "="
  self-cleavage kobs at 2500 uM GlcN6P [s⁻¹]: "7.44e-05"
- sequence-change: "C8A G32C"
  value-comparator: "<"
  self-cleavage kobs at 2500 uM GlcN6P [s⁻¹]: "1e-05"
- sequence-change: "A12G G38U A52U A64U"
  value-comparator: "<"
  self-cleavage kobs at 2500 uM GlcN6P [s⁻¹]: "1e-05"
- sequence-change: "C8U C50G G63U"
  value-comparator: "="
  self-cleavage kobs at 2500 uM GlcN6P [s⁻¹]: "5.35e-05"
- sequence-change: "C10A A12U G37U G44U C50G A53G C68U"
  value-comparator: "<"
  self-cleavage kobs at 2500 uM GlcN6P [s⁻¹]: "1e-05"
- sequence-change: "C10A G51A G66A C68A C70A"
  value-comparator: "="
  self-cleavage kobs at 2500 uM GlcN6P [s⁻¹]: "7.81e-05"
- sequence-change: "U30C A39C"
  value-comparator: "="
  self-cleavage kobs at 2500 uM GlcN6P [s⁻¹]: "5.33e-05"
- sequence-change: "A12G A52G G60C U65G"
  value-comparator: "<"
  self-cleavage kobs at 2500 uM GlcN6P [s⁻¹]: "1e-05"
- sequence-change: "G13U C34G"
  value-comparator: "<"
  self-cleavage kobs at 2500 uM GlcN6P [s⁻¹]: "1e-05"
- sequence-change: "G41A A42G"
  value-comparator: "="
  self-cleavage kobs at 2500 uM GlcN6P [s⁻¹]: 0.000296
- sequence-change: "C8A G13C U30C G41U"
  value-comparator: "<"
  self-cleavage kobs at 2500 uM GlcN6P [s⁻¹]: "1e-05"
- sequence-change: "G9C C11G"
  value-comparator: "<"
  self-cleavage kobs at 2500 uM GlcN6P [s⁻¹]: "1e-05"
- sequence-change: "C34G G38A C58A C68G"
  value-comparator: "="
  self-cleavage kobs at 2500 uM GlcN6P [s⁻¹]: "4.79e-05"
- sequence-change: "G35C A53G"
  value-comparator: "<"
  self-cleavage kobs at 2500 uM GlcN6P [s⁻¹]: "1e-05"
- sequence-change: "A12C U31G"
  value-comparator: "="
  self-cleavage kobs at 2500 uM GlcN6P [s⁻¹]: 0.00237
- sequence-change: "G40A G66C"
  value-comparator: "="
  self-cleavage kobs at 2500 uM GlcN6P [s⁻¹]: 0.00045
- sequence-change: "G35C G63C"
  value-comparator: "<"
  self-cleavage kobs at 2500 uM GlcN6P [s⁻¹]: "1e-05"
- sequence-change: "G44A G63U"
  value-comparator: "<"
  self-cleavage kobs at 2500 uM GlcN6P [s⁻¹]: "1e-05"
- sequence-change: "G35U G44U C68A"
  value-comparator: "<"
  self-cleavage kobs at 2500 uM GlcN6P [s⁻¹]: "1e-05"
- sequence-change: "G41C G43C U55A U57G U69G"
  value-comparator: "<"
  self-cleavage kobs at 2500 uM GlcN6P [s⁻¹]: "1e-05"
- sequence-change: "G32U C50U C61U"
  value-comparator: "<"
  self-cleavage kobs at 2500 uM GlcN6P [s⁻¹]: "1e-05"
- sequence-change: "A14G A33C"
  value-comparator: "="
  self-cleavage kobs at 2500 uM GlcN6P [s⁻¹]: "8.25e-05"
- sequence-change: "A12U G40U"
  value-comparator: "="
  self-cleavage kobs at 2500 uM GlcN6P [s⁻¹]: 0.00609
- sequence-change: "G51C U56G"
  value-comparator: "<"
  self-cleavage kobs at 2500 uM GlcN6P [s⁻¹]: "1e-05"
- sequence-change: "G38C G51U U57C"
  value-comparator: "<"
  self-cleavage kobs at 2500 uM GlcN6P [s⁻¹]: "1e-05"
